pIC50: −log10 of the molar value.
Collected pIC50 for m-Calpain (Rattus norvegicus) across several studies; molecules listed below.
quantity: pIC50

>>> print(df.to_string())
                          structurenotation              measurementtarget  measvalue
0  CCCC[C@H](NC(=O)COc1cccc(OC)c1)C(=O)CSCc1ccsc1  m-Calpain (Rattus norvegicus)       4.89
1  CCCC[C@H](NC(=O)[C@H](CC(C)C)NC(=O)OCc1ccccc1)C(=O)CCCc1ccco1  m-Calpain (Rattus norvegicus)       5.00
2  CC(C)CCNC(=O)[C@H](CC(C)C)NC(=O)[C@H]1OS(=O)(=O)O[C@@H]1C(=O)OCc1ccccc1  m-Calpain (Rattus norvegicus)       5.22
3  CC(C)CCNC(=O)[C@H](CC(C)C)NC(=O)[C@H]1OS(=O)(=O)O[C@@H]1C(=O)O  m-Calpain (Rattus norvegicus)       6.52
4  COc1ccc(/C=C/C(=O)N[C@@H](Cc2ccccc2)C(=O)CSCc2ccsc2)c(OC)c1  m-Calpain (Rattus norvegicus)       4.84
5  O=C(COc1ccccc1)N[C@@H](Cc1ccccc1)C(=O)CSCc1ccco1  m-Calpain (Rattus norvegicus)       4.77
